Taken from patent US20250382363A1.

# targetSystem: pre-existing anti-drug antibodies (ADA) present in human sera
# assayMethodText: pre-existing ADA ELISA, scFv coated, human sera unspiked vs spiked
Parameter Mean No of serum samples >30% inhibition (30% CCP) with SCP (serum samples): see the listing below.
Give the figure only, with no unit attached.

| binder | observed |
| --- | --- |
| PRO3326 (scFv 54-21-H03-sc01_(T101Q, T146Q)) (scFv, PRO1922 variant; VH substitutions, AHo numbering; also called PRO1922 T101Q-T146Q) scFv: DIQMTQSPSSLSASVGDRVTITCQASESIYSSLAWYQQKPGKAPKLLIYLASTLASGVPSRFSGSGSGTDFTLTISSLQPEDFATYYCQSTDYTTSTHRNSFGTGTKVTVLGGGGGSGGGGSGGGGSGGGGSEVQLVESGGGLVQPGGSLRLSCAASGFSFSTTYYMCWVRQAPGKGLEWIGCTNTASSVRTYYATWAKGRFTISRDNSKNTVYLQMNSLRAEDQAVYYCARDMGFADYALNLWGQGTLVQVSS | 0 |

stdin: Answer with reported Mean No of serum samples >30% inhibition (30% CCP) with SCP (serum samples) of PRO2948 (scFv 37-20-B03-sc09.1_(T146R)) (scFv, PRO2230 variant; VH substitution, AHo numbering; also called PRO2230 T146R) scFv: DIQMTQSPASLSASVGDRVTITCQASQSIGTYLAWYQQKPGKPPKLLIYRAFILASGVPSRFSGSGSGTDFTLTISSLQPEDFATYYCQSNFYSDSTTIGPNAFGTGTKVTVLGGGGGSGGGGSGGGGSGGGGSEVQLVESGGGLVQPGGSLRLSCAASGFSFNSDYWIYWVRQAPGKGLEWIASIYGGSSGNTQYASWAQGRFTISRDNSKNTVYLQMNSLRAEDTAVYFCARGYVDYGGATDLWGQGTLVRVSS
stdout: 1
